The measurements presented in this section are drawn from patent US8541588B2.

target: Nav1.7 (or SCN9A) channel; HEK cells stably transfected with hSCN9A (Homo sapiens, UniProt Q15858); construct: expressed in transfected cells; assay: Nav1.7 block, PatchXpress 7000 automated whole-cell voltage clamp, estimated IC50 (EIC50); assay type: cell-based; conditions: estimated IC50; hSCN9A HEK cells, PatchXpress platform; Examples 283-814
Sequence (Q15858 whole entry): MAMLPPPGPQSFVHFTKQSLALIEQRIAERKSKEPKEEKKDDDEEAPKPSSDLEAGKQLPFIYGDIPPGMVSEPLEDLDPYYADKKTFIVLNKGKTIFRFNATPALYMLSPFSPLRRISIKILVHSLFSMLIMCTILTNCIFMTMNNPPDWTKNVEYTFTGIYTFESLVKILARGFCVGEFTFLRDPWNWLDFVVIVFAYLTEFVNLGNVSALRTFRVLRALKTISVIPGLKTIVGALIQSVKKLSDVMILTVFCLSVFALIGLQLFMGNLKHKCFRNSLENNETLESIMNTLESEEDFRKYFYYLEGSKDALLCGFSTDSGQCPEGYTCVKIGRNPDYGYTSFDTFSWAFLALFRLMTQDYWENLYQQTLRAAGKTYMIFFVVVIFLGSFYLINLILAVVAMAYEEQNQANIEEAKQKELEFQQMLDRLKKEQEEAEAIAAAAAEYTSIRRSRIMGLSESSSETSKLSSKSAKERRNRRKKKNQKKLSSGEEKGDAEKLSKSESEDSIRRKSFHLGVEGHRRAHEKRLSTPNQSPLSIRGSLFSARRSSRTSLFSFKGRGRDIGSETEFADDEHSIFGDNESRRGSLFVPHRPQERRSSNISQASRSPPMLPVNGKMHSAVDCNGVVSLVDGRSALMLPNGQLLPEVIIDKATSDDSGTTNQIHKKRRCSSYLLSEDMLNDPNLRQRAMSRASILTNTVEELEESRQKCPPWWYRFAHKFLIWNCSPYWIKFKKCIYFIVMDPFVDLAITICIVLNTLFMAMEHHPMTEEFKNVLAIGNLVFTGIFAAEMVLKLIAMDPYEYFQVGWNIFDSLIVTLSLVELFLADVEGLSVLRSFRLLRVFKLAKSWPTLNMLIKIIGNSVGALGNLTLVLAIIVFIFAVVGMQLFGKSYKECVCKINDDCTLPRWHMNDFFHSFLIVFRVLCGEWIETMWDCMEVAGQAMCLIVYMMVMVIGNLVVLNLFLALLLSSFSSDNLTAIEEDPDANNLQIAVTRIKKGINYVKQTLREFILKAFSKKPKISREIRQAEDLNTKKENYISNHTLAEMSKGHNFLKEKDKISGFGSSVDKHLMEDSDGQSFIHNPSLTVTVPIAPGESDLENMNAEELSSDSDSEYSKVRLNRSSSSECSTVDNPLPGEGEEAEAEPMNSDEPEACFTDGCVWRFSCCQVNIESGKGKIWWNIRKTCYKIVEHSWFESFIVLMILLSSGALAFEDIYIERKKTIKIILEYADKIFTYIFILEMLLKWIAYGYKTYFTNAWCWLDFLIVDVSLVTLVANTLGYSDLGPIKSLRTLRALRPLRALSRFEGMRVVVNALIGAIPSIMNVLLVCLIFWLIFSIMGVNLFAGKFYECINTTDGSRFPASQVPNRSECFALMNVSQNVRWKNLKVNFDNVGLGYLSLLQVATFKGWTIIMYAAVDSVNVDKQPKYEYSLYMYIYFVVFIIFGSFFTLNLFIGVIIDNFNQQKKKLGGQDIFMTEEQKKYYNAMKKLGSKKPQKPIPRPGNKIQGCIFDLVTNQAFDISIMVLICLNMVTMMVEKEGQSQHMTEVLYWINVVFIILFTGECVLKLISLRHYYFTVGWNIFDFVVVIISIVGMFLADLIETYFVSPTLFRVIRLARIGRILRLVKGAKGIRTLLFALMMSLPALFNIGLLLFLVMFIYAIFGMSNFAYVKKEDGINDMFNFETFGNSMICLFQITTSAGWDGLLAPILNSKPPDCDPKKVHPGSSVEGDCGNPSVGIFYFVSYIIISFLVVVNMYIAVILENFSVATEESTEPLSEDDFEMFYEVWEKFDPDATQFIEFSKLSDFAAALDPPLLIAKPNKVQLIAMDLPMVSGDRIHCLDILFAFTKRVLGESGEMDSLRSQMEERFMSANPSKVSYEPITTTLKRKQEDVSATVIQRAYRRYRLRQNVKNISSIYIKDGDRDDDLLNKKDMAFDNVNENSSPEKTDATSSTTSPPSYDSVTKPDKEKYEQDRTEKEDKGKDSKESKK
Entries and their measured IC50 follow.

- molecule: "CN(C)Cc1cnn(-c2ccc(Oc3ccc(S(=O)(=O)Nc4nccs4)cc3C#N)cc2)c1"
  measured value: ">1000 nM"

Req: So what's the measured IC50 for this one? `N#Cc1cc(S(=O)(=O)Nc2ncns2)ccc1Oc1ccc(F)cc1-c1ccn[nH]1`
Resp: 190 nM

Req: So what's the measured IC50 for this one? `Cc1nc(-c2ccccc2Oc2ccc(S(=O)(=O)Nc3ccc(F)cn3)cc2C#N)cs1`
Resp: >30000 nM

Req: So what's the measured IC50 for this one? `N#Cc1cc(S(=O)(=O)Nc2ccc(F)cn2)ccc1Oc1ccc(-c2cocn2)cc1`
Resp: >3000 nM

* * *

molecular target: Nav1.7 (or SCN9A) channel; HEK cells stably transfected with hSCN9A (Homo sapiens, UniProt Q15858); construct: expressed in transfected cells; assay: Nav1.7 block, PatchXpress 7000 automated whole-cell voltage clamp, estimated IC50 (EIC50); format: cell-based; details: estimated IC50; hSCN9A HEK cells, PatchXpress platform; Examples 815-1040
attribute measured: IC50 (µM)

Worked set:
- compound: "CN(C)C(=O)c1cccc(-c2ccccc2)c1Oc1ccc(S(=O)(=O)Nc2ncns2)cc1C#N [Example 1008]"
  IC50 (µM): 0.74
- compound: "N#Cc1ccc(Oc2cc(F)c(S(=O)(=O)Nc3ncns3)cc2Cl)c(-c2cn[nH]c2)c1 [Example 850]"
  IC50 (µM): 0.0032
- compound: "O=S(=O)(Nc1ncns1)c1cc(Cl)c(Oc2ccc(Cl)cc2-c2ccnnc2)cc1F [Example 910]"
  IC50 (µM): 0.012
- compound: "N#Cc1cnn(-c2ccc(Oc3ccc(S(=O)(=O)Nc4nccs4)cc3C#N)cc2)c1 [Example 994]"
  IC50 (µM): 9.5
- compound: "Cn1nccc1-c1cc(Cl)ccc1Oc1ccc(S(=O)(=O)/N=c2\\sccn2COP(=O)(O)O)cc1C#N [Example 1039]"
  IC50 (µM): 0.31

[1] N#Cc1cc(S(=O)(=O)Nc2ncns2)ccc1Oc1ccc(Cl)cc1-c1ccc(CC(=O)O)cc1 [Example 1001]
[2] N#Cc1cc(S(=O)(=O)Nc2nncs2)ccc1Oc1ccc(Cl)cc1-c1ccnc(N2CCC2)c1 [Example 919]
Req: Hi team, can someone confirm which has the larger IC50: 1 or 2 ? Thanks. Please indicate the selected item by its label.
Resp: 1

* * *

biological target: Nav1.7 (or SCN9A) channel; HEK cells stably transfected with hSCN9A (Homo sapiens); construct: expressed in transfected cells; assay: Nav1.7 block, PatchXpress 7000 automated whole-cell voltage clamp, estimated IC50 (EIC50); assay type: cell-based; details: estimated IC50; hSCN9A HEK cells, PatchXpress platform; Examples 283-814
attribute measured: IC50 (µM)

Worked set:
- molecule: "CCn1nc(C(F)(F)F)cc1-c1ccc(Oc2ncc(S(=O)(=O)Nc3nccs3)cc2C#N)cc1 [Example 740]"
  target system: "Nav1.7 (or SCN9A) channel; HEK cells stably transfected with hSCN9A (Homo sapiens)"
  unit tag: "µM"
  IC50: 0.40
- molecule: "N#Cc1cc(S(=O)(=O)Nc2ncc(Cl)s2)ccc1Oc1ccc(F)cc1-c1ccn[nH]1 [Example 589]"
  target system: "Nav1.7 (or SCN9A) channel; HEK cells stably transfected with hSCN9A (Homo sapiens)"
  unit tag: "µM"
  IC50: 0.51
- molecule: "CCn1nc(C(F)(F)F)cc1-c1ccc(Oc2ccc(S(=O)(=O)Nc3ncns3)cc2Cl)cc1 [Example 473]"
  target system: "Nav1.7 (or SCN9A) channel; HEK cells stably transfected with hSCN9A (Homo sapiens)"
  unit tag: "µM"
  IC50: 0.072
- molecule: "N#Cc1cc(S(=O)(=O)Nc2nccs2)ccc1Oc1cccc(-c2ccccn2)c1 [Example 449]"
  target system: "Nav1.7 (or SCN9A) channel; HEK cells stably transfected with hSCN9A (Homo sapiens)"
  unit tag: "µM"
  IC50: 3.1
- molecule: "O=S(=O)(Nc1ncns1)c1ccc(Oc2ccc(Cl)cc2C2CCNCC2)c(Cl)c1 [Example 477]"
  target system: "Nav1.7 (or SCN9A) channel; HEK cells stably transfected with hSCN9A (Homo sapiens)"
  unit tag: "µM"
  IC50: 0.016
- molecule: "O=S(=O)(Nc1cscn1)c1cc(Cl)c(Oc2ccc(Cl)cc2-c2cnn[nH]2)cc1F [Example 777]"
  target system: "Nav1.7 (or SCN9A) channel; HEK cells stably transfected with hSCN9A (Homo sapiens)"
  unit tag: "µM"
  IC50: 1.3
- molecule: "N#Cc1cc(S(=O)(=O)Nc2ncc(Cl)s2)ccc1Oc1ccc(Cl)cc1-c1cn[nH]c1 [Example 786]"
  target system: "Nav1.7 (or SCN9A) channel; HEK cells stably transfected with hSCN9A (Homo sapiens)"
  unit tag: "µM"
  IC50: 0.0076
- molecule: "N#Cc1cc(S(=O)(=O)Nc2nccs2)ccc1Oc1ccc(-n2ccc(C(F)(F)F)n2)c(F)c1 [Example 381]"
  target system: "Nav1.7 (or SCN9A) channel; HEK cells stably transfected with hSCN9A (Homo sapiens)"
  unit tag: "µM"
  IC50: 0.47

[P] Cn1ccc(-c2ccc(F)cc2Oc2ccc(S(=O)(=O)Nc3nccs3)cc2C#N)n1 [Example 494]
[Q] N#Cc1cc(S(=O)(=O)Nc2ncc(F)cn2)ccc1Oc1ccccc1-c1ccccc1 [Example 427]
[R] Cn1nccc1-c1cc(F)ccc1Oc1ccc(S(=O)(=O)Nc2ccncn2)cc1Cl [Example 669]
[S] N#Cc1cc(S(=O)(=O)Nc2nccs2)ccc1Oc1ccc(Cl)cc1-n1cnnn1 [Example 416]
[T] CN1CCC(c2cc(Cl)ccc2Oc2cc(F)c(S(=O)(=O)Nc3ncns3)cc2F)CC1 [Example 734]
Req: Which order do these items take when sorted by rising IC50? List them. Output the labels ranked as instructed.
Resp: T, R, S, P, Q
(T: 0.053 µM, R: 0.2 µM, S: 1.6 µM, P: 2.5 µM, Q: 4.3 µM)

[P] Cn1nccc1-c1cc(F)ccc1Oc1ccc(S(=O)(=O)Nc2ccncn2)cc1F [Example 528]
[Q] O=S(=O)(Nc1nncs1)c1cc(Cl)c(Oc2ccc(Cl)cc2-c2ccn[nH]2)cc1F [Example 300]
[R] N#Cc1cc(S(=O)(=O)Nc2nccs2)ccc1Oc1ccc(Cl)cc1CN1CCC(O)C1 (centres unmarked) [Example 357]
Req: Please rank these molecules by IC50 in descending order. Output the labels ranked as instructed.
Resp: P, R, Q

[a] N#Cc1cc(S(=O)(=O)Nc2nccs2)ccc1Oc1ccc(Cl)cc1-c1cccnc1 [Example 700]
[b] Cn1nc(C(F)(F)F)cc1-c1ccc(Oc2cc(F)c(S(=O)(=O)Nc3nncs3)cc2Cl)c(C#N)c1 [Example 297]
Req: Hi team, can someone confirm which has the larger IC50: a or b ? Thanks. Please indicate the selected item by its label.
Resp: b
(b: 1 µM, a: 0.057 µM)
